# Assay Method Text: Plasma concentration in mouse at 25 mg/kg, po after 1 hr by LC-MS/MS analysis
# Assay type: ADME, organism-based
Field 'label' (enum: Yes / No). Set to Yes when concentration at 1 h is strictly under 600 ng/mL; else No.

Task: API: query returns whether the compound falls strictly under 600 ng/mL in concentration at 1 h. Query: Cc1ccc(-c2cnc(NCc3c(F)ccc4c3CCO4)n3cnc(S(C)(=O)=O)c23)c(C)n1
Result: No

Task: API: query returns whether the compound falls strictly under 600 ng/mL in concentration at 1 h. Query: CS(=O)(=O)c1ncn2c(NCc3c(F)ccc4c3CCO4)ncc(-c3ccc(C4CC4)nc3)c12
Result: No

Task: API: query returns whether the compound falls strictly under 600 ng/mL in concentration at 1 h. Query: CS(=O)(=O)c1ncn2c(NCc3c(F)ccc4c3CCO4)ncc(-c3ccc(F)cc3)c12
Result: Yes

Task: API: query returns whether the compound falls strictly under 600 ng/mL in concentration at 1 h. Query: Cc1ncccc1-c1cnc(NCc2c(F)ccc3c2CCO3)n2cnc(S(C)(=O)=O)c12
Result: Yes

Task: API: query returns whether the compound falls strictly under 600 ng/mL in concentration at 1 h. Query: Cc1nc(C(F)(F)F)ccc1-c1cnc(NCc2c(F)ccc3c2CCO3)n2cnc(S(C)(=O)=O)c12
Result: No

Task: API: query returns whether the compound falls strictly under 600 ng/mL in concentration at 1 h. Query: CS(=O)(=O)c1ccc(-c2cnc(NCc3c(F)ccc4c3CCO4)n3cnc(S(C)(=O)=O)c23)cn1
Result: Yes

Task: API: query returns whether the compound falls strictly under 600 ng/mL in concentration at 1 h. Query: CS(=O)(=O)c1ncn2c(NCc3c(F)ccc4c3CCO4)ncc(-c3ccc(C(F)(F)F)nc3)c12
Result: Yes

Task: API: query returns whether the compound falls strictly under 600 ng/mL in concentration at 1 h. Query: Cn1cc(-c2cnc(NCc3c(F)ccc4c3CCO4)n3cnc(S(C)(=O)=O)c23)cn1
Result: Yes

Task: API: query returns whether the compound falls strictly under 600 ng/mL in concentration at 1 h. Query: CS(=O)(=O)c1ncn2c(NCc3c(F)ccc4c3CCO4)ncc(-c3ccc(C(F)F)nc3)c12
Result: Yes

Task: API: query returns whether the compound falls strictly under 600 ng/mL in concentration at 1 h. Query: Cc1ccc(-c2cnc(NCc3c(F)ccc4c3CCO4)n3cnc(S(C)(=O)=O)c23)cn1
Result: Yes

###

# Assay Method Text: Plasma clearance in mouse at 2 mg/kg, iv by LC-MS/MS analysis
# Type: ADME, organism-based
Exercise: for every item that follows, state its recorded clearance.
Report the value in mL/min/kg with no unit label.

Task: Quick one: give measured clearance for CS(=O)(=O)c1ncn2c(NCc3c(F)ccc4c3CCO4)ncc(-c3ccc(C4CC4)nc3)c12
Result: 20

Task: Quick one: give measured clearance for Cc1ccc(-c2cnc(NCc3c(F)ccc4c3CCO4)n3cnc(S(C)(=O)=O)c23)c(C)n1
Result: 40

###

Exercise: for every item that follows, state its recorded log10 IC50.
# System: Pfeiffer
# Assay Method Text: Growth inhibition of human Pfeiffer cells incubated for 7 days by WST8 assay
# Assay type: functional, cell-based
# Condition Description: 168 h
Short version: log10 scale, IC50, nM.

Task: Quick one: give measured log10 IC50 for CS(=O)(=O)c1ncn2c(NCc3c(F)ccc4c3CCO4)ncc(-c3ccc(C(F)F)nc3)c12
Result: -1.70

Task: Quick one: give measured log10 IC50 for Cc1ncccc1-c1cnc(NCc2c(F)ccc3c2CCO3)n2cnc(S(C)(=O)=O)c12
Result: -1.10

Task: Quick one: give measured log10 IC50 for CS(=O)(=O)c1ncn2c(NCc3c(F)ccc4c3CCO4)ncc(-c3ccc(C4CC4)nc3)c12
Result: -1.70

Task: Quick one: give measured log10 IC50 for CS(=O)(=O)c1ccc(-c2cnc(NCc3c(F)ccc4c3CCO4)n3cnc(S(C)(=O)=O)c23)cc1
Result: -1.70

Task: Quick one: give measured log10 IC50 for CS(=O)(=O)c1ccc(-c2cnc(NCc3c(F)ccc4c3CCO4)n3cnc(S(C)(=O)=O)c23)cn1
Result: -0.30

Task: Quick one: give measured log10 IC50 for Cc1ccc(-c2cnc(NCc3c(F)ccc4c3CCO4)n3cnc(S(C)(=O)=O)c23)cn1
Result: -1.52

Task: Quick one: give measured log10 IC50 for Cn1cc(-c2cnc(NCc3c(F)ccc4c3CCO4)n3cnc(S(C)(=O)=O)c23)cn1
Result: -0.57

Task: Quick one: give measured log10 IC50 for Cc1cc(S(C)(=O)=O)ccc1-c1cnc(NCc2c(F)ccc3c2CCO3)n2cnc(S(C)(=O)=O)c12
Result: -1.70

Task: Quick one: give measured log10 IC50 for CS(=O)(=O)c1ncn2c(NCc3c(F)ccc4c3CCO4)ncc(-c3ccc(C(F)(F)F)nc3)c12
Result: -1.52

Task: Quick one: give measured log10 IC50 for Cc1nc(C(F)(F)F)ccc1-c1cnc(NCc2c(F)ccc3c2CCO3)n2cnc(S(C)(=O)=O)c12
Result: -1.30

Task: Quick one: give measured log10 IC50 for CS(=O)(=O)c1ncn2c(NCc3c(F)ccc4c3CCO4)ncc(-c3ccc(F)cc3)c12
Result: -0.92

###

# Assay Method Text: Plasma concentration in mouse at 25 mg/kg, po after 3 hrs by LC-MS/MS analysis
# Type: ADME, organism-based
Exercise: for every item that follows, state its recorded concentration at 3 h.
Report the value in ng/mL with no unit label.

Task: Quick one: give measured concentration at 3 h for Cc1ncccc1-c1cnc(NCc2c(F)ccc3c2CCO3)n2cnc(S(C)(=O)=O)c12
Result: 194

Task: Quick one: give measured concentration at 3 h for Cc1ccc(-c2cnc(NCc3c(F)ccc4c3CCO4)n3cnc(S(C)(=O)=O)c23)cn1
Result: 94

Task: Quick one: give measured concentration at 3 h for CS(=O)(=O)c1ccc(-c2cnc(NCc3c(F)ccc4c3CCO4)n3cnc(S(C)(=O)=O)c23)cn1
Result: 36

Task: Quick one: give measured concentration at 3 h for Cn1cc(-c2cnc(NCc3c(F)ccc4c3CCO4)n3cnc(S(C)(=O)=O)c23)cn1
Result: 50

Task: Quick one: give measured concentration at 3 h for CS(=O)(=O)c1ncn2c(NCc3c(F)ccc4c3CCO4)ncc(-c3ccc(C4CC4)nc3)c12
Result: 608

Task: Quick one: give measured concentration at 3 h for CS(=O)(=O)c1ncn2c(NCc3c(F)ccc4c3CCO4)ncc(-c3ccc(C(F)(F)F)nc3)c12
Result: 189
